# measurement.description: Stability in human cryopreserved hepatocytes
# condition.notes: both, cryopreserved hepatocytes (pooled, 19 donors)

| molecule | half-life at 5 µM |
| --- | --- |
| Cc1cc(Oc2cncnc2)cc(C(=O)Nc2ccc(F)cn2)n1 [compound 27] | > 5 h |

###

# measurement.description: Rat IV PK
# Format: in vivo
# condition.notes: male, Sprague-Dawley, plasma, 1 mg/kg
Reported clearance at 24 h values for the following compounds.

| compound | clearance at 24 h, mL/min/kg |
| --- | --- |
| Cc1cc(Oc2cncnc2)cc(C(=O)Nc2ccc(F)cn2)n1 [compound 27] | 19.3 |
| CCc1cccc(NC(=O)c2cc(Oc3cncnc3)cc(C)n2)n1 [compound 23] | 43.7 |
| Cc1cc(Oc2cncc(F)c2)cc(C(=O)Nc2ccc(F)cn2)n1 [compound 28] | 9.2 |
| Cc1cccc(NC(=O)c2cc(Oc3cncnc3)cc(C)n2)n1 [compound 21] | 34.2 |
| Cc1cc(Oc2cncc(F)c2)cc(C(=O)Nc2cccc(F)n2)n1 [compound 26] | 96 |
| Cc1cccc(NC(=O)c2cc(Oc3cncc(F)c3)cc(C)n2)n1 [compound 22] | 32.5 |
| Cc1cc(Oc2cnc(C)nc2)cc(C(=O)Nc2ccc(F)cn2)n1 [compound 33] | 6.2 |

###

# measurement.description: Cynomolgus monkey oral PK
# Type: in vivo
# condition.notes: male, plasma, 5 mg/kg
Entries annotated with measured Tmax
experimental.endpoint: Tmax (h)

| input.smiles | unit | recorded.result |
| --- | --- | --- |
| Cc1cc(Oc2cncc(F)c2)cc(C(=O)Nc2ccc(F)cn2)n1 | h | 2 |
| Cc1cc(Oc2cncnc2)cc(C(=O)Nc2ccc(F)cn2)n1 | h | 3 |
